experiment: Cytotoxicity against mouse J774.G8 cells after 72 hrs by MTS assay; assay type: cell-based
MEASURED PARAMETER: IC50

Please review the following examples before continuing.
In [3]: df
Out[3]:
                            chemical_smiles  meas_value
0       O=C(O)c1ccc(NS(=O)(=O)c2ccccc2)cc1O   > 2540 µM
1  Nc1nc(O)c2cc(S(=O)(=O)c3ccc4ccccc4c3)ccc2n1   > 2850 µM
2       Cc1ccc(S/C=C/S(=O)(=O)Cc2ccccc2)cc1     0.85 µM
3          Nc1ccc(S(=O)(=O)c2cc(O)ccc2O)cc1   > 1890 µM
4              Cc1ccc(S(=O)(=O)c2ccccc2)cc1      134 µM
5         O=S(=O)(c1ccc(O)cc1)c1cc(Cl)ccc1O      107 µM
6        Oc1ccc2ccccc2c1SSc1c(O)ccc2ccccc12   > 1430 µM
7  CC(=O)Nc1ccc(S(=O)(=O)c2ccc(NC(=O)c3ccccc3O)cc2)cc1   > 1620 µM

// next entry
Briefly, IC50 measured for COc1ncnc(NS(=O)(=O)c2ccc(N)cc2)c1OC : > 1610 µM
